assayed system: LTD4 receptor (Cavia porcellus, UniProt Q2NNR5)
Construct: from tissue; host or cells: guinea-pig lung membranes
Sequence (Q2NNR5 whole entry): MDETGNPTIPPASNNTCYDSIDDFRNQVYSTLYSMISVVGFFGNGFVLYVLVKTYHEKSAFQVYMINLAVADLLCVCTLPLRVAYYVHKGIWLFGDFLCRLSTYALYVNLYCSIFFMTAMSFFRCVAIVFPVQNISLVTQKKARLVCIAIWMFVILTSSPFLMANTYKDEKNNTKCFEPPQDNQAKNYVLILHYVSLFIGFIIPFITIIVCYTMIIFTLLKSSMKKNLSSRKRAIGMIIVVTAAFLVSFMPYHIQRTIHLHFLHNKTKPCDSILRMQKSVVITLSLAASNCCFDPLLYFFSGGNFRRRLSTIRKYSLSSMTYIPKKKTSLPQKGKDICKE
assay info: Receptor binding: direct competition with [^3 H]LTD4 on guinea-pig lung membranes
reported conditions: presence of 0.1% human serum albumin, mean ± SD (n) or individual values, read-out: pIC50, binding of [^3 H]LTD4, presence of albumin (converted)
measurement label: IC50 (nM)

Some solved cases for reference:
>  <smiles code>
OC[C@@H](O)[C@@H](Nc1cccc(/C=C/c2ccc3cc(F)c(F)cc3n2)c1)c1ccccc1

>  <IC50 [nM]>
0.501

$$$$
>  <smiles code>
OC[C@H](O)[C@H](Nc1cccc(/C=C/c2ccc3cc(F)c(F)cc3n2)c1)c1ccccc1

>  <IC50 [nM]>
0.794

$$$$

[a] OC[C@@H](O)[C@@H](Nc1cccc(/C=C/c2ccc3ccc(F)cc3n2)c1)c1ccccc1
[b] OC[C@H](O)[C@H](Nc1cccc(/C=C/c2ccc3ccc(F)cc3n2)c1)c1ccccc1
// task: argmin of IC50 over [ a , b ] Identify your selection by its label.
a

----------
assayed system: LTD4 receptor (Cavia porcellus, UniProt Q2NNR5)
Construct: from tissue; host or cells: guinea-pig lung membranes
assay info: Receptor binding: direct competition with [^3 H]LTD4 on guinea-pig lung membranes
reported conditions: absence of albumin, mean ± SD (n) or individual values, read-out: pIC50, binding of [^3 H]LTD4, absence of albumin (converted)
measurement label: IC50 (nM)

>  <smiles code>
OC[C@@H](O)[C@@H](Nc1cccc(/C=C/c2ccc3ccc(Cl)cc3n2)c1)c1ccccc1

>  <assayed system>
LTD4 receptor (Cavia porcellus, UniProt Q2NNR5)

>  <number>
3.98

$$$$
>  <smiles code>
OC[C@H](O)[C@H](Nc1cccc(/C=C/c2ccc3cc(F)c(F)cc3n2)c1)c1ccccc1

>  <assayed system>
LTD4 receptor (Cavia porcellus, UniProt Q2NNR5)

>  <number>
1.58

$$$$

[A] OC[C@@H](O)[C@@H](Nc1cccc(/C=C/c2ccc3cc(F)c(F)cc3n2)c1)c1ccccc1
[B] OC[C@@H](O)[C@@H](Nc1cccc(/C=C/c2ccc3ccc(F)cc3n2)c1)c1ccccc1
[C] OC[C@H](O)[C@H](Nc1cccc(/C=C/c2ccc3ccc(F)cc3n2)c1)c1ccccc1
Your job: order these 3 records by IC50, ascending. To answer, arrange all of the labels according to the requested order.
A, B, C
